All values here come from patent US20240294623A1.

# IC50, reporter cell assay values compiled below
# targetOrSystem: hLTBP1-proTGFβ1 (human, UniProt Q14766 347-1721; P01137 30-390, limits assumed)
# Sequence (Q14766 347-1721 limits assumed, chain 1 of 2): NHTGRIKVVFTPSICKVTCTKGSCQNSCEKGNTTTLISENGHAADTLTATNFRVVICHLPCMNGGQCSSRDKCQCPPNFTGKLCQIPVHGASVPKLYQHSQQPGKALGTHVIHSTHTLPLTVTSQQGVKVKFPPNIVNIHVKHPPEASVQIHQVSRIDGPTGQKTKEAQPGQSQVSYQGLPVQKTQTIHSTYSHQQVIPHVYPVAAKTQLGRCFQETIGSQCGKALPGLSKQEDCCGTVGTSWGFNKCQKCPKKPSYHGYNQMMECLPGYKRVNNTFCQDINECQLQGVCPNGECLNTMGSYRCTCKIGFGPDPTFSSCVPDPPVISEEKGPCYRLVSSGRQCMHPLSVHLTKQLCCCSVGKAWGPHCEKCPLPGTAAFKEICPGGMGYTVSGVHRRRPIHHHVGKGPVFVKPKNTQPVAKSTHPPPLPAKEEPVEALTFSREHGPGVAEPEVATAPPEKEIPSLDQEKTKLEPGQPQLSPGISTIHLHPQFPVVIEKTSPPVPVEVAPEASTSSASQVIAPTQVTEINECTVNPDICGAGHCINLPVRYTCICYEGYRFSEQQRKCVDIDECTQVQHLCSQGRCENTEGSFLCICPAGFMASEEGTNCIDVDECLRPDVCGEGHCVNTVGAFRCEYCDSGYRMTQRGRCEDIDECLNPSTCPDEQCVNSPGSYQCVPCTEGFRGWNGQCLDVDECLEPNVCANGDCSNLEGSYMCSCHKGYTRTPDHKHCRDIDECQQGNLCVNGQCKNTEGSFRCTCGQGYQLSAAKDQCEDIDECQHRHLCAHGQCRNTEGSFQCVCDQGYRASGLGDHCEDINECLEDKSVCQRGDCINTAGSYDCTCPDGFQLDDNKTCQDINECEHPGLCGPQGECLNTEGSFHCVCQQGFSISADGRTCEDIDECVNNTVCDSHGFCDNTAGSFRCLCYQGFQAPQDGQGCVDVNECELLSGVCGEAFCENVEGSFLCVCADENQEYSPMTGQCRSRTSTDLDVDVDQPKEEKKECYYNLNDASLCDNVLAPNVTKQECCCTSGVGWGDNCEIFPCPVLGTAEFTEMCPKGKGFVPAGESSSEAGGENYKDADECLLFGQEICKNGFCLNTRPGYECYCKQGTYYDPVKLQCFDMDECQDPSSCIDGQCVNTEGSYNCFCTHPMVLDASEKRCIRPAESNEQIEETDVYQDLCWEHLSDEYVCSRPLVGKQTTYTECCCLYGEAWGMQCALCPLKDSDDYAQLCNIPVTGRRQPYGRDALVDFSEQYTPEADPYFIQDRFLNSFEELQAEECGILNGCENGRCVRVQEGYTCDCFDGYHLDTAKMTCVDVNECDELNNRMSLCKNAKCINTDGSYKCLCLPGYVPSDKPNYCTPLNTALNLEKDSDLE
# Sequence (P01137 30-390 limits assumed, chain 2 of 2): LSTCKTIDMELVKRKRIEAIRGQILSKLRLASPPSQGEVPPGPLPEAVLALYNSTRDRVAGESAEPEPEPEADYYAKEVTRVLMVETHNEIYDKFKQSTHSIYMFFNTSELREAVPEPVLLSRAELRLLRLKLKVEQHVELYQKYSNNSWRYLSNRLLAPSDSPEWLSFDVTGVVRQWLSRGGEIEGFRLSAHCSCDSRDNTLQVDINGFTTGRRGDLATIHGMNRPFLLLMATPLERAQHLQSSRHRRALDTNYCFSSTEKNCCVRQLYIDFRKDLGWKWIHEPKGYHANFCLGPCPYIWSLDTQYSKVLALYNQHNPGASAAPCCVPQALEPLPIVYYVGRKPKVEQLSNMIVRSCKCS
# measurementProtocol: cell-based or functional assay
Give just the numeric value; nM need not be written.

binder	unitDescriptor	IC50, reporter cell assay
Ab25 (antibody, V domains shown) VH: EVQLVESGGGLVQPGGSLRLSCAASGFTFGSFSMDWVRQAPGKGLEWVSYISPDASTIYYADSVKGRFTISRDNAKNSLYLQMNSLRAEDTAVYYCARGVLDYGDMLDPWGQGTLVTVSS VL: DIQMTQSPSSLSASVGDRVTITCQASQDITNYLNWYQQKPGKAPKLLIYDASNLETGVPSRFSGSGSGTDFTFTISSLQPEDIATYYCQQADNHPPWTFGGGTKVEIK	nM	6.1

Fill in the blank: the reported IC50, reporter cell assay of Ab23 (antibody, V domains shown) VH: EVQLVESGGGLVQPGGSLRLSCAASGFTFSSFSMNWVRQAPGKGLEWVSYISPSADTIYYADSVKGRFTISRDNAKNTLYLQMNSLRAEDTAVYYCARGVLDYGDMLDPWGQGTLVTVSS VL: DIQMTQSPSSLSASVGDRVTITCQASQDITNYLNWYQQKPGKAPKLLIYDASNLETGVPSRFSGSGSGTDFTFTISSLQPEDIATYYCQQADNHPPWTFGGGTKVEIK is ____.
0.8

Fill in the blank: the reported IC50, reporter cell assay of Ab33 (antibody, V domains shown) VH: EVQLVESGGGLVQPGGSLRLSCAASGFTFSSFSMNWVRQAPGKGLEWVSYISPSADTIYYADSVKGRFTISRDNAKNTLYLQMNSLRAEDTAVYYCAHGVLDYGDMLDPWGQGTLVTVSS VL: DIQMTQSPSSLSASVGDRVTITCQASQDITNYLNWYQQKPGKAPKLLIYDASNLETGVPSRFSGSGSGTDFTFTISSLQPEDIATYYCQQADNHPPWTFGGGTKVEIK is ____.
1.6

Fill in the blank: the reported IC50, reporter cell assay of Ab21 (antibody, V domains shown) VH: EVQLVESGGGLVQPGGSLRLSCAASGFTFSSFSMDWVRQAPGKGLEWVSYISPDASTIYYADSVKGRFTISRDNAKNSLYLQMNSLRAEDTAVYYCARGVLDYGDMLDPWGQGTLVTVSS VL: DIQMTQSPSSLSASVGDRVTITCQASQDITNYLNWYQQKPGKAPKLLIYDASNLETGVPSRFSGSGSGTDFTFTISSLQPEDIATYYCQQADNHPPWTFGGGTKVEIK is ____.
1.6

Fill in the blank: the reported IC50, reporter cell assay of Ab26 (antibody, V domains shown) VH: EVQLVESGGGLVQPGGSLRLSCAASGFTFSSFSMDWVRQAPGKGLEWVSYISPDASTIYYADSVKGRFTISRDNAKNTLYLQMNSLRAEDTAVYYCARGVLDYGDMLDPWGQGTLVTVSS VL: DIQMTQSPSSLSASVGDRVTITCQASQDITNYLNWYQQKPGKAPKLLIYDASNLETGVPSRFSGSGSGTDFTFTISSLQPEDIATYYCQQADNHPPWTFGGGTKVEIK is ____.
0.7
